The entries below are paired with their reported response.
B1: MEIG1 wild type, two-hybrid fusion from MEIG1/pGBKT7 [mouse] / Parkin co-regulated gene protein (PACRG), two-hybrid fusion from PACRG/pGADT7 [mouse] (parent complex)
chain 1: MATSDVKPKSISRAKKWSEEIENLYRFQQAGYRDEIEYKQVKQVAMVDRWPETGYVKKLQRRDNTFFYYNKERECEDKEVHKVKVYVY
chain 2: not shown

Variants of: B1
Assay Explanation: yeast two-hybrid, α-galactosidase activity; Yeast strain AH109 co-transformed with PACRG/pGADT7 and MEIG1/pGBKT7 plasmids; parent: 65; read off a plot

Sample answers from the record:
INPUT: Fill in the blank: the reported response of chain 1 F66A is ____.
OUTPUT: ~15

INPUT: Query (variant): chain 1 W50A ; field requested: response
OUTPUT: ~10

// next entry
INPUT: Need response of chain 1 K9E , thanks.
OUTPUT: ~72
